Measured values drawn from patent US20140056902A1 for this set.

Measured Kd, listed per entry.
Biological target: T1, human mature dimer BMP9 recombinant protein (manufactured by R&D systems, Cat#3209-BP) (human, UniProt Q9UK05 320-429)
T1 construct: Bought protein; also called human BMP9; human BMP9 recombinant protein (manufactured by R&D systems)
T1 sequence: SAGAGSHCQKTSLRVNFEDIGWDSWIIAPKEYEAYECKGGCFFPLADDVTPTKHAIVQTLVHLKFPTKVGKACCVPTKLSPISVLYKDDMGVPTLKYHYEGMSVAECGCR
Assay: SPR (Biacore T100), antibody captured on anti-human IgG, human BMP9 (R&D 3209-BP) as analyte, 5 concentrations from 1 nM
// return numeric value only (unit: pM, not printed)

# example entries with known answers
Binder	Kd / pM
10D5-2-3 antibody-humanized antibody HV9LV2 (antibody, V domains shown, Expressed from pKANTEX93) VH: EVQLVESRGGLVQPGGSMRLSCAASGFTFSNYWMNWVRQAPGKGLEWVAHIRLKSDNYATHYAESVRGRFTISRDDSKSSVYLQMNSLKTEDTGIYYCTGGSNYVFAFWGQGTLVTVSS VL: DIVMTQSPDSLAVSLGERATINCRASESVDNYGISFMNWFQQKPGQPPKLLIYAASNQGSGVPDRFSGSGSGTDFTLTISSLQAEDVAVYFCQQSKEVPWTFGQGTKLEIK	3.89
10D5-2-3 antibody-humanized antibody HV7bLV2 (antibody, V domains shown, Expressed from pKANTEX93) VH: EVQLVESRGGLVQPGGSMRLSCAASGFTFSNYWMNWVRQAPGKGLEWVAHIRLKSDNYATHYAESVRGRFTISRDDSKNSVYLQMNSLKTEDTGVYYCTGGSNYVFAFWGQGTLVTVSS VL: DIVMTQSPDSLAVSLGERATINCRASESVDNYGISFMNWFQQKPGQPPKLLIYAASNQGSGVPDRFSGSGSGTDFTLTISSLQAEDVAVYFCQQSKEVPWTFGQGTKLEIK	4.91
10D5-2-3 antibody-humanized antibody HV4bLV3 (antibody, V domains shown, Expressed from pKANTEX93) VH: EVQLVESGGGLVQPGGSLRLSCAASGFTFSNYWMNWVRQAPGKGLEWVAHIRLKSDNYATHYAESVRGRFTISRDDSKNSLYLQMNSLKTEDTAIYYCTGGSNYVFAFWGQGTLVTVSS VL: DIVMTQSPDSLAVSLGERATINCRASESVDNYGISFMNWFQQKPGQPPKLLIYAASNQGSGVPDRFSGSGSGTDFTLTISPLQAEDVAVYFCQQSKEVPWTFGQGTKLEIK	10.1

Below: the item to evaluate.
Query string: Can you look up the measured Kd of 10D5-2-3 antibody-humanized antibody HV7aLV0 (antibody, V domains shown, Expressed from pKANTEX93) VH: EVQLVESRGGLVQPGGSMRLSCAASGFTFSNYWMNWVRQAPGKGLEWVAHIRLKSDNYATHYAESVRGRFTISRDDSKSSLYLQMNSLKTEDTGVYYCTGGSNYVFAFWGQGTLVTVSS VL: DIVMTQSPDSLAVSLGERATINCRASESVDNYGISFMNWYQQKPGQPPKLLIYAASNQGSGVPDRFSGSGSGTDFTLTISSLQAEDVAVYYCQQSKEVPWTFGQGTKLEIK for me?
Result string: 9.69
